// values below are pIC50; system is SARS‐CoV‐2 PL^pro (Severe acute respiratory syndrome coronavirus 2)
Please report pIC50 as the negative decimal logarithm of the molar concentration, giving only the number.

For orientation, consider the following solved cases.
{"compound": "O=C(NC1C(O)OC(CO)C(O)C1O)C1CCN(C(=S)[S][Au][PH](c2ccccc2)(c2ccccc2)c2ccccc2)CC1 (mixture of isomers)", "test.result": 6.85}
{"compound": "C1=CCCC=CCC1.Cn1[c-][n+](C)c(-c2ccccc2)c1.[Br-].[Rh+]", "test.result": 5.66}
{"compound": "O=[N+]([O-])[O-].[Ag+] [Ag‐1, silver nitrate, reference compound]", "test.result": 6.35}
{"compound": "CO[C@H]1O[C@H](CO)[C@@H](O)[C@H](O)[C@H]1NC(=O)C1CCN(C(=S)[S-])CC1.[Au+3].[Br-].[Br-]", "test.result": 7.05}
{"compound": "O=C(O)CC([S-])C(=O)O.[Au+] (stereo not drawn) [Au‐2, aurothiomalate, reference compound]", "test.result": 6.22}

Ask: For the record CCP(CC)CC.[Au+].[Cl-] [Au‐3, (triethylphosphine)AuCl, reference compound] , what value of pIC50 is listed for SARS‐CoV‐2 PL^pro (Severe acute respiratory syndrome coronavirus 2)?
Result: 5.96

Ask: For the record CCn1[c]([Au-][Cl])[n+](CC)c2cc(C(=O)OC)ccc21 , what value of pIC50 is listed for SARS‐CoV‐2 PL^pro (Severe acute respiratory syndrome coronavirus 2)?
Result: 5.96

Ask: For the record CO[C@H]1O[C@H](CNC(=O)C2CCN(C(=S)[S-])CC2)[C@@H](O)[C@H](O)[C@H]1O.[Au+3].[Br-].[Br-] , what value of pIC50 is listed for SARS‐CoV‐2 PL^pro (Severe acute respiratory syndrome coronavirus 2)?
Result: 6.68

Ask: For the record CCn1[c]([Au-][S]C(=S)N2CCC(C(=O)NC3C(O)OC(CO)C(O)C3O)CC2)[n+](CC)c2ccccc21 (mixture of isomers) , what value of pIC50 is listed for SARS‐CoV‐2 PL^pro (Severe acute respiratory syndrome coronavirus 2)?
Result: 6.39
